Procedure Details: amyloid nucleation score (Sup35N fusion, yeast selection) (log enrichment); library NNK1; higher = more nucleation; inactive = no reads after selection;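 note: zero at mode of non-aggregating sequences after 7 days selection at 30°C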
Value Type: amyloid nucleation score

[[record]]
seq = "SVLDFNNYMEIVAQVKGEDP"
value_type = "amyloid nucleation score"
result = "inactive"

[[record]]
seq = "QMKVISLVRHE"
value_type = "amyloid nucleation score"
result = "inactive"

[[record]]
seq = "TFLQFTRYFWLTTYNKGSS"
value_type = "amyloid nucleation score"
result = "inactive"


* * *

Procedure Details: amyloid nucleation score (Sup35N fusion, yeast selection) (log enrichment); library NNK3; higher = more nucleation; inactive = no reads after selection
Value Type: amyloid nucleation score

[[record]]
seq = "NLLGTVIIFLRDGSS"
result = 2.13

[[record]]
seq = "NRMRPIDNLGHISMFGVLGG"
result = "inactive"

[[record]]
seq = "IAPYGRGWKDYLIDSEHVRT"
result = "inactive"

[[record]]
seq = "MMFVGYLSCFSS"
result = 2.38

[[record]]
seq = "KTWVSIVSGLKADSGGGLHA"
result = "inactive"

[[record]]
seq = "CWSSIYSNDQDFYWKSPLLS"
result = "inactive"

[[record]]
seq = "VDCMATSQGRIRKYVNFVIW"
result = 2.35

[[record]]
seq = "FYGFGGISIRSGVVGIVDMK"
result = "inactive"

[[record]]
seq = "SILWSPIDEGLIIVSSVTFL"
result = "inactive"

[[record]]
seq = "FKYLVIVNNWG"
result = 2.82

[[record]]
seq = "GFAISQAYALSTPFVCISAI"
result = "inactive"

[[record]]
seq = "MCGLVTFWRALRGNRGRY"
result = "inactive"

[[record]]
seq = "IGFIIGDVFAA"
result = "inactive"

